So I've got a bunch of compounds here, and I need their IC50 values.
# experimental target: hERG potassium channel (Homo sapiens (Human), UniProt Q12809)
# Sequence (Q12809 whole entry): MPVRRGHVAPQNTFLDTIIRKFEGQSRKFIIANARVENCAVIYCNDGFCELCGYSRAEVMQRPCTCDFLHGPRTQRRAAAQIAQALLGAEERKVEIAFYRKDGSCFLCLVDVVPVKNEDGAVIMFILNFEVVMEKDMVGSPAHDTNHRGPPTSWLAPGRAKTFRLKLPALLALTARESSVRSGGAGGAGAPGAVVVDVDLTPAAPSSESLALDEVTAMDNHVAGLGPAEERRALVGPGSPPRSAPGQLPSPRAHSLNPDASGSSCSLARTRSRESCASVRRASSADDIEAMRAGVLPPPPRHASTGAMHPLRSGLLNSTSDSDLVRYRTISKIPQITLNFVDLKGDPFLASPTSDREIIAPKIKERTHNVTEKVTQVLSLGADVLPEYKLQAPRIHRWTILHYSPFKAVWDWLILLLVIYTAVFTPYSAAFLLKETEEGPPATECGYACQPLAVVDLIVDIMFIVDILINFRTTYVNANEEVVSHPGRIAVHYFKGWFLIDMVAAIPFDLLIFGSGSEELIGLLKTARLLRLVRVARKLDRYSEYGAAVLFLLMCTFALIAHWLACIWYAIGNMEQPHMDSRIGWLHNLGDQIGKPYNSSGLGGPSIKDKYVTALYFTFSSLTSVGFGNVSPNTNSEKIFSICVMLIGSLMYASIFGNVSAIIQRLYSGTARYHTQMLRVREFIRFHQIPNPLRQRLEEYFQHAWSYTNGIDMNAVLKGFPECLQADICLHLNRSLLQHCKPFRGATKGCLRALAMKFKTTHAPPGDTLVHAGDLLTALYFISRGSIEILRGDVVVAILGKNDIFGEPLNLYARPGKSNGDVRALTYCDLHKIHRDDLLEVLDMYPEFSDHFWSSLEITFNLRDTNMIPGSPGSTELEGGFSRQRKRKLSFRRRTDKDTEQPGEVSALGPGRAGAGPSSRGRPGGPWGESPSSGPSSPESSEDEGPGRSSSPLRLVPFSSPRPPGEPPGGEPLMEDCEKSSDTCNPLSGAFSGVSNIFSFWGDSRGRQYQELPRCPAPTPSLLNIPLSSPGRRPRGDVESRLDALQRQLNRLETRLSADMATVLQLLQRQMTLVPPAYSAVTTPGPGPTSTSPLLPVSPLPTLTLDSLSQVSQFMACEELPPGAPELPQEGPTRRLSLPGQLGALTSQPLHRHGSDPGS
# test summary: Inhibition test of hERG potassium ion channel (automatic patch clamp, CHO-hERG cells)
# test conditions: QPatch whole cell patch clamp, CHO-hERG, 0.24-30.00 μM

query: What value of IC50 has been recorded for this entry: Cl.Cn1nc(-c2ccc(OC/C(=C/F)CN)cc2)nc1C(F)F [WX126]
result: > 30 µM

query: What value of IC50 has been recorded for this entry: Cc1noc(-c2ccc(OC/C(=C/F)CN)cc2)n1.Cl [WX008]
result: > 30 µM

---

So I've got a bunch of molecules here, and I need their pIC50 values.
# experimental target: VAP-1/SSAO (Homo sapiens (Human), UniProt Q16853)
# Sequence (Q16853 whole entry): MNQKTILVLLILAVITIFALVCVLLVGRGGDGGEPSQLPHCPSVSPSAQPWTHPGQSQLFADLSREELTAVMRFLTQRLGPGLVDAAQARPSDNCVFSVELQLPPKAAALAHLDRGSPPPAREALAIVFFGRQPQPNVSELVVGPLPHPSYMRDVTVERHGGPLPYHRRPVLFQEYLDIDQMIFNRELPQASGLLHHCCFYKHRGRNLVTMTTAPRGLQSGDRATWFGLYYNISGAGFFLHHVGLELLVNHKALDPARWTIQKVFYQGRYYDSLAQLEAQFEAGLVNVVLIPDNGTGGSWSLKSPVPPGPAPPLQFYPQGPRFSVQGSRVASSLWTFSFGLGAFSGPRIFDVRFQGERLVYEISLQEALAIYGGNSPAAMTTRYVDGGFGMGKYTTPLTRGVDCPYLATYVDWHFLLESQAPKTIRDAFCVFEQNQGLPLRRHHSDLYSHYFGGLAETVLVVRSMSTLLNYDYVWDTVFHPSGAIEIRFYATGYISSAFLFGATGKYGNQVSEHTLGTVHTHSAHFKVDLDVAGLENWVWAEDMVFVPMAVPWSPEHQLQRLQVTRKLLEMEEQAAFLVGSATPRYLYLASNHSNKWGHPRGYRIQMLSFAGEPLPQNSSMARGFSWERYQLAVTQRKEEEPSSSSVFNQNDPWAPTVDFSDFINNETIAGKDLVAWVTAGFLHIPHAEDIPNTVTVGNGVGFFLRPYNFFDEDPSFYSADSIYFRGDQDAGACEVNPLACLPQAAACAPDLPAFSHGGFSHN
# test summary: Human VAP-1 enzyme activity assay (Amplex Red Monoamine Oxidase kit)
# Format: biochemical
# test conditions: 10 nM VAP-1 enzyme, 30 min preincubation, benzylamine substrate; read-out: Human Recombinant VAP-1/SSAO Enzyme Inhibitory Activity IC50
# Description: Human VAP-1 enzyme activity assay: The inhibition of the sample on VAP-enzyme activity was measured by using an Amplex® Red Monoamine Oxidase kit (Invitrogen #A12214). […] After the incubation, the fluorescent signal was read with a microplate reader Envision (excitation light wavelength 530-560 nm, emission light wavelength 590 nm). The fluorescence signal value after the background signal was removed was analyzed by Prism software, and the IC50 of the sample against the VAP-1 enzyme was calculated.
Notebook: values listed as pIC50 are -log10 of the concentration (mol/L).

query: What value of pIC50 has been recorded for this entry: CC(C)(C)n1nnc(-c2ccc(OC/C(=C/F)CN)cc2)n1
result: 9.22

query: What value of pIC50 has been recorded for this entry: NC/C(=C\F)COc1ccc(-c2nc3ccc(Cl)cc3[nH]2)cc1
result: 9.40

query: What value of pIC50 has been recorded for this entry: NC/C(=C\F)COc1ccc(-c2nnc(NC3CC3)o2)cc1
result: 9.70

query: What value of pIC50 has been recorded for this entry: NC/C(=C\F)COc1ccc(-c2nc(C3(F)CC3)n[nH]2)cc1
result: 9.52

query: What value of pIC50 has been recorded for this entry: Cc1nnc(-c2ccc(OC/C(=C/F)CN)cc2)o1
result: 8.60
